# Tested on: Staphylococcus aureus
# assay overview: Antibacterial activity against Staphylococcus aureus ATCC 25923 after 24 hrs by broth microdilution method
# Type: functional
# details: ATCC 25923, 24 h
parameter measured: MIC (µg/mL)
Unit µg/mL implied. Number only.

[
  {
    "molecule": "CC(C)=CCCC1=COC2=C(C)C(=O)/C(=N\\Nc3ccc([N+](=O)[O-])cc3[N+](=O)[O-])c3c(C)ccc1c32",
    "parameter measured": "MIC",
    "numeric value": 512
  },
  {
    "molecule": "CC(C)=CCCC1=COC2=C(C)C(=O)/C(=N\\Nc3ccccc3)c3c(C)ccc1c32",
    "parameter measured": "MIC",
    "numeric value": 256
  }
]

Below: the item to evaluate.
Query block: Give recorded MIC with Staphylococcus aureus for the following molecule: NCC[C@H](O)C(=O)N[C@@H]1C[C@H](N)[C@@H](O[C@H]2O[C@H](CN)[C@@H](O)[C@H](O)[C@H]2O)[C@H](O)[C@H]1O[C@H]1O[C@H](CO)[C@@H](O)[C@H](N)[C@H]1O
Result block: 256

----------
Reported MIC is given for each of the following compounds.
# Tested on: Staphylococcus aureus
# assay overview: Antibacterial activity against Staphylococcus aureus 358 after 24 hrs by broth microdilution method
# Type: functional
# details: Staphylococcus aureus, 358, 24 h
Unit µg/mL implied. Number only.

Consider the worked cases shown below.
[
  {
    "chemical string": "CC(C)=CCCC1=COC2=C(C)C(=O)C(=O)c3c(C)ccc1c32",
    "system": "Staphylococcus aureus",
    "unit of measure": "µg/mL",
    "MIC": 128
  },
  {
    "chemical string": "CO/N=C1\\C(=O)C(C)=C2OC=C(CCC=C(C)C)c3ccc(C)c1c32",
    "system": "Staphylococcus aureus",
    "unit of measure": "µg/mL",
    "MIC": 64
  },
  {
    "chemical string": "CCO/N=C1\\C(=O)C(C)=C2OC=C(CCC=C(C)C)c3ccc(C)c1c32",
    "system": "Staphylococcus aureus",
    "unit of measure": "µg/mL",
    "MIC": 64
  }
]

Below: the item to evaluate.
Query block: Using the record for CC(C)=CCCC1=COC2=C(C)C(=O)/C(=N\Nc3ccc([N+](=O)[O-])cc3[N+](=O)[O-])c3c(C)ccc1c32 , report its MIC.
Result block: 512

----------
# System: Escherichia coli
# assay overview: Antibacterial activity against Escherichia coli 27 after 24 hrs by broth microdilution method
# Type: functional
# details: Escherichia coli, 27, 24 h
parameter measured: MIC (µg/mL)
Unit µg/mL implied. Number only.

[
  {
    "compound": "CC(C)=CCCC1=COC2=C(C)C(=O)C(=O)c3c(C)ccc1c32",
    "parameter measured": "MIC",
    "numeric value": 256
  }
]

Query block: Using the record for NCC[C@H](O)C(=O)N[C@@H]1C[C@H](N)[C@@H](O[C@H]2O[C@H](CN)[C@@H](O)[C@H](O)[C@H]2O)[C@H](O)[C@H]1O[C@H]1O[C@H](CO)[C@@H](O)[C@H](N)[C@H]1O , report its MIC.
Result block: 128

Query block: Using the record for NCC1O[C@H](O[C@H]2[C@@H](O)[C@H](O[C@H]3[C@H](O)[C@@H](N)C[C@@H](N)[C@@H]3O[C@H]3O[C@H](CN)[C@@H](O)[C@H](O)[C@H]3N)O[C@@H]2CO)[C@H](N)[C@@H](O)[C@@H]1O (stereo partly drawn) , report its MIC.
Result block: 128

Query block: Using the record for CCO/N=C1\C(=O)C(C)=C2OC=C(CCC=C(C)C)c3ccc(C)c1c32 , report its MIC.
Result block: 128

Query block: Using the record for CC(C)=CCCC1=COC2=C(C)C(=O)/C(=N\O)c3c(C)ccc1c32 , report its MIC.
Result block: 512

Query block: Using the record for CO/N=C1\C(=O)C(C)=C2OC=C(CCC=C(C)C)c3ccc(C)c1c32 , report its MIC.
Result block: 128
